Source listed as patent US12240862B2.

Target desc: human PAD4 (Homo sapiens)
Construct: human PAD4 (NM_012387), A2P663, was PCR amplified; His-SUMO (N, cleaved yes)
Experiment: In vitro PAD4 BAEE biochemical assay
Cond: human PAD4, BAEE substrate; 5 nM PAD4, 2 mM calcium chloride, 3 mM BAEE; geometric mean of multiple experiments
pIC50: −log10 of the molar value.
Parameter threshold = 7. Response is yes (1) when pIC50 meets or exceeds it, else no (0).

Please review the following examples before continuing.
COc1cc(C(=O)N(C)C)cc2nc(-c3cc4ccc([C@@H](C)N(C)C(=O)c5ccccc5)nc4n3CC3CC3)c(C)n12 [Example 184] = no (0)
COc1cc(C(=O)N2C[C@@H]3CCCN[C@@H]3C2)cc2nc(-c3cc4ccc(N(C(F)F)S(C)(=O)=O)nc4n3CC3CC3)c(C)n12 [Example 337] = no (0)

Hi team, for COc1cc(C(=O)N2[C@H]3CC[C@@H]2[C@H](N)C3)cc2nc(-c3cc4ccc([C@@H](C)NC(=O)C(C)(O)C5CC5)nc4n3CC3CC3)c(C)n12 (stereo partly drawn) [Example 92] , is the recorded pIC50 at or above 7?
yes (1)

Hi team, for COc1cc(C(=O)N[C@@H]2CCCCNC2)cc2nc(-c3cc4ccc(N(C(F)F)S(C)(=O)=O)nc4n3CC3CC3)c(C)n12 [Example 316] , is the recorded pIC50 at or above 7?
no (0)

---

Target desc: human PAD4 (Homo sapiens, UniProt Q9UM07)
Construct: human PAD4 (NM_012387), A2P663, was PCR amplified; His-SUMO (N, cleaved yes)
Sequence (Q9UM07 2-663): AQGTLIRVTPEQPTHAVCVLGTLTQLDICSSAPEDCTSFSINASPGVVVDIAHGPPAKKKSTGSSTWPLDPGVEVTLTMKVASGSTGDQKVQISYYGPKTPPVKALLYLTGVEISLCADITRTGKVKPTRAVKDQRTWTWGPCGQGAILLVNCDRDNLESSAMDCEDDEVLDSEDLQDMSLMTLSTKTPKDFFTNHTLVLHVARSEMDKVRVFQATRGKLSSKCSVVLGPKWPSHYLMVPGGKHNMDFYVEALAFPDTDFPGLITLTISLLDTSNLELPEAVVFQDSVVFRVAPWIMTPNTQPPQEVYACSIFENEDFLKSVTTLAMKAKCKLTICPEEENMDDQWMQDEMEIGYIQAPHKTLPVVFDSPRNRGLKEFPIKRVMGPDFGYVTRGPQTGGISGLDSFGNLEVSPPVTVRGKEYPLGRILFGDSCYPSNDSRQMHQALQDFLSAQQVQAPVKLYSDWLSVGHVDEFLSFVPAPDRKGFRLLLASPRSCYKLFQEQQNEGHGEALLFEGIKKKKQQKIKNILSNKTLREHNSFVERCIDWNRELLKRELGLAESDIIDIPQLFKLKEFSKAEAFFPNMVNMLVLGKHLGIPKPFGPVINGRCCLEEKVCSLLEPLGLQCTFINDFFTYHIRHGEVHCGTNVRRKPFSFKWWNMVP
Experiment: In vitro PAD4 BAEE biochemical assay
Cond: human PAD4, BAEE substrate; 5 nM PAD4, 2 mM calcium chloride, 3 mM BAEE; geometric mean of multiple experiments
Source text: The PCR product was ligated into linearized pET-SUMO vector (Invitrogen, Carlsbad, CA), which is part of the Champion™ pET SUMO Protein Expression System. […] The enzymatic activity of human PAD4 was monitored in a biochemical assay in the presence or absence of compounds using the small peptidyl arginine mimic BAEE (Na-Benzoyl-L-arginine ethyl ester hydrochloride) as substrate. […] Levels of ammonia were monitored by using an amine coupling reaction and were indicative of PAD4 enzymatic activity. […]
Outcome measure: IC50 (µM)
Give the quantity in µM, number only.

CCc1ccc2cc(-c3nc4cc(C(=O)N5[C@H]6CC[C@@H]5[C@H](N)C6)cc(OC)n4c3C)n(Cc3ccncc3)c2n1 [Example 507] = 0.152
COc1cc(C(=O)N2C[C@@H]3C[C@]3(N)C2)cc2nc(-c3cc4ccc([C@@H](C)NC(=O)C56CC(F)(C5)C6)nc4n3CC3CC3)c(C)n12 [Example 25] = 4.45

Next item in the queue.
Record lookup: for human PAD4 (Homo sapiens, UniProt Q9UM07), what IC50 belongs to COc1cc(C(=O)N[C@@H]2C[C@@H]3CC[C@H]2N3)cc2nc(-c3cc4ccc(N(C(F)F)S(C)(=O)=O)nc4n3CC3CC3)c(C)n12 [Example 312] ?
31.2

---

Target desc: human PAD4 (Homo sapiens, UniProt Q9UM07)
Construct: human PAD4 (NM_012387), A2P663, was PCR amplified; His-SUMO (N, cleaved yes); made in house; host or cells: E. coli BL21(DE3)
Experiment: In vitro PAD4 BAEE biochemical assay
Cond: human PAD4, BAEE substrate; 5 nM PAD4, 2 mM calcium chloride, 3 mM BAEE; geometric mean of multiple experiments
Outcome measure: pIC50
The meaning of pIC50 here: minus log10 of the concentration in molar units.

Worked cases, pIC50 given:
COc1cc(C(=O)N2[C@H]3CC[C@@H]2[C@H](N)C3)cc2nc(-c3cc4ccc([C@@H](C)NC(=O)N[C@@H](C)c5cccnc5)nc4n3CC3CC3)c(C3CC3)n12 = 7.34
COc1cc(C(=O)N2[C@H]3CC[C@@H]2[C@H](N)C3)cc2nc(-c3cc4ccc([C@@H](C)NC(=O)C5(C)COC5)nc4n3CC3CC3)c(C)n12 = 7.25
COc1cc(C(=O)N2[C@H]3CC[C@@H]2[C@H](N)C3)cc2nc(-c3cc4ccc(N5CCNCCS5(=O)=O)nc4n3CC3CC3)c(C)n12 = 7.67
COc1cc(C(=O)N2[C@H]3CC[C@@H]2[C@H](N)C3)cc2nc(-c3cc4ccc([C@@H](C)NC(=O)Nc5c(C)cccc5C)nc4n3CC3CC3)c(C)n12 = 6.84
COc1cc(C(=O)N2[C@H]3CC[C@@H]2[C@H](N)C3)cc2nc(-c3cc4ccc([C@@H](C)NC(=O)C5(C(F)F)CC5)nc4n3CC3CC3)c(C)n12 = 6.97
COc1cc(C(=O)N2[C@H]3CC[C@@H]2[C@H](N)C3)cc2nc(-c3cc4ccc([C@@H](C)NC(=O)CC(C)(C)C(=O)O)nc4n3CC3CC3)c(C)n12 = 7.10

Record lookup: for human PAD4 (Homo sapiens, UniProt Q9UM07), what pIC50 belongs to COc1cc(C(=O)N2[C@H]3CC[C@@H]2[C@H](N)C3)cc2nc(-c3cc4ccc(N5CCOCCS5(=O)=O)nc4n3CC3CC3)c(C)n12 ?
7.66

Record lookup: for human PAD4 (Homo sapiens, UniProt Q9UM07), what pIC50 belongs to COc1cc(C(=O)N2CC[C@H]3OCCN[C@H]3C2)cc2nc(-c3cc4ccc(N(C(F)F)S(C)(=O)=O)nc4n3CC3CC3)c(C)n12 ?
6.35
